Values compiled from patent US20030187240A1.

Below: a set of entries, each annotated with reported inhibition of c-raf mRNA expression.
- Tested on: c-raf mRNA
- experimental protocol: Northern blot analysis of inhibition of c-raf mRNA expression in T24 cells
- Type: cell-based, human
Strand notation (5' to 3'): a small letter for the sugar, then the base; units joined by * are phosphorothioate-linked, units joined directly phosphodiester-linked; [ ] holds rarer units or linkages, { } end groups; capitals alone tell only the bases. d = 2'-deoxy (DNA); m = 2'-O-methyl
parameter measured: inhibition of c-raf mRNA expression

[
  {
    "substance": "7856 (dT*dT*dC*dT*dC*dG*dC*dC*dC*dG*dC*dT*dC*dC*dT*dC*dC*dT*dC*dC) [Oligonucleotide 7856]",
    "subject of test": "c-raf mRNA",
    "parameter measured": "inhibition of c-raf mRNA expression",
    "reported": "> 70%"
  },
  {
    "substance": "TCCTCCTCCCCGCGGCGGGT (sugars from the 5' end m11 d9, all phosphorothioate, T or U not given here) [Oligonucleotide 7848]",
    "subject of test": "c-raf mRNA",
    "parameter measured": "inhibition of c-raf mRNA expression",
    "reported": "> 70%"
  }
]

====

Each item that follows carries a reported T½.
- Tested on: crude HeLa cellular extracts

[
  {
    "substance": "CsCsAsCoAoCoCoGoAoCoGoGoCoGsCsCsC [Oligonucleotide 4241]",
    "T½": "0.9 h"
  },
  {
    "substance": "CsCsAsCsAsCsCsGoAoCoGsGsCsGsCsCsC [Oligonucleotide 4551]",
    "T½": "~3.75 h"
  },
  {
    "substance": "CsCsAsCsAsCsCoGoAoCoGsGsCsGsCsCsC [Oligonucleotide 4593]",
    "T½": "~3.2 h"
  },
  {
    "substance": "CsCsAsCsAsCsCoGoAoCoGoGsCsGsCsCsC [Oligonucleotide 4606]",
    "T½": "1.75 h"
  },
  {
    "substance": "4233 (CCACACCGACGGCGCCC; 2'-O-methyl wings, mixed phosphorothioate/phosphodiester, pattern not given here) [Oligonucleotide 4233]",
    "T½": "7 h"
  }
]

====

- Tested on: T24 cancer cell proliferation
- experimental protocol: Inhibition of proliferation of cancer cells
- Type: cell-based, human
- conditions: T24 cells, dose-response study
parameter measured: IC50 (nM)

[
  {
    "substance": "3985 (CCACACCGACGGCGCCC; 2'-O-methyl wings, phosphorothioate, wing lengths not given here) [Oligonucleotide 3985]",
    "parameter measured": "IC50",
    "reported": 61
  }
]

====

Below: a set of entries, each annotated with reported inhibition of c-raf mRNA expression.
- Tested on: c-raf mRNA
- experimental protocol: Northern blot analysis of inhibition of c-raf mRNA expression in T24 cells
- Assay type: cell-based, human
Strand notation (5' to 3'): a small letter for the sugar, then the base; units joined by * are phosphorothioate-linked, units joined directly phosphodiester-linked; [ ] holds rarer units or linkages, { } end groups; capitals alone tell only the bases. d = 2'-deoxy (DNA); m = 2'-O-methyl
parameter measured: inhibition of c-raf mRNA expression

[
  {
    "substance": "7849 (dC*dT*dC*dG*dC*dC*dC*dG*dC*dT*dC*dC*dT*dC*dC*dT*dC*dC*dC*dC) [Oligonucleotide 7849]",
    "subject of test": "c-raf mRNA",
    "reported": "> 70%"
  },
  {
    "substance": "7854 (TTCTCCTCCTCCCCTGGCAG; sugars from the 5' end m12 d8, all phosphorothioate, T or U not given here) [Oligonucleotide 7854]",
    "subject of test": "c-raf mRNA",
    "reported": "> 70%"
  }
]
